Reference source for all entries: ChEMBL document CHEMBL4513216

system: Plasmodium berghei; assay: Screen against P. berghei liver stage (PbLuc), transformed with Luciferase, at 10uM; assay type: functional, HepG2; conditions: tested at 10 uM
In all, about 69,000 compounds went through this assay and about 8,600 (12%) showed an effect of 50% or more. The entries come from a sample that favours strong results as a whole.
Reported INHIBITION is given for each of the following molecules.
Write the answer as a number in %, unit excluded.

CN(c1ccc(C(=O)NCCCN2CCCCC2)c(Cl)c1)S(C)(=O)=O = 70.4
CN(c1ccc(Cl)c(C(=O)NCCCN2CCOCC2)c1)S(C)(=O)=O = 63.3
Cc1cc(C)c(S(N)(=O)=O)cc1C(=O)NCCN1CCC(C)CC1 = -7.83
CC(C)N1CCC(c2nccnc2Nc2cnccn2)CC1 = 23.9
CN1CCCN(C[C@@H]2CN(C(=O)CC3CCC3)C[C@@H]2CO)CC1 = -6.91

# lookup: Plasmodium berghei INHIBITION, key = Cc1ccc(C(=O)NCCC2CCN(C)CC2)cc1N(C)S(C)(=O)=O
42.1

# lookup: Plasmodium berghei INHIBITION, key = Cc1noc(C)c1CN1CCCC1c1c(C)nn(C)c1Cl (stereo unspecified)
-16

====

tested on: Plasmodium berghei; experiment: Screen against P. berghei liver stage (PbLuc), transformed with Luciferase, at 10uM; format: functional, HepG2; details: tested at 10 uM
The whole screen tested about 69,000 compounds, of which about 8,600 (12%) showed an effect of 50% or more. The full list was thinned out, with strong results kept by preference.
Tick y if INHIBITION is 20% or greater. Tick n if INHIBITION is less than 20%.

N#Cc1cc(F)c(NCCc2ccc(F)cc2)c(F)c1 = y
CNC(=O)NCC1CCC2(CCN(C(=O)c3cccnc3)CC2)CO1 (configuration not stated) = y
O=C(NCC(F)(F)F)c1ccncc1 = n
COCc1cn(C2CCN(CCC(C)c3ccccc3)CC2)nn1 (configuration not stated) = y
Cc1ccc2c(c1)C(NC(C)C)CC21CCNCC1 (configuration not stated) = n
CNC(=O)NC1CC2(CCNCC2)c2ccc(C)cc21 (configuration not stated) = y

Does the reported INHIBITION for CC(C)NC1CC2(CCNCC2)c2cc(F)ccc21 (configuration not stated) fall at or above the 20% mark?
n

Does the reported INHIBITION for N#Cc1cc(F)c(NCCc2ccc(S(N)(=O)=O)cc2)c(F)c1 fall at or above the 20% mark?
y

Does the reported INHIBITION for CN(C)CC(=O)N1CCN(c2cc(N3CCCC3CO)ncn2)CC1 (configuration not stated) fall at or above the 20% mark?
n

====

tested on: Plasmodium berghei; assay: Screen against P. berghei liver stage (PbLuc), transformed with Luciferase, at 10uM; format: functional, HepG2; details: tested at 10 uM
The whole screen tested about 69,000 compounds, of which about 8,600 (12%) showed an effect of 50% or more. What follows is part of a selection rich in strong results, with near analogues and random picks from the rest.
Value type: INHIBITION (%)
Write the answer as a number in %, unit excluded.

Oc1nnc(-c2cccs2)c2sc(N3CCCCC3)nc12 = 54.3
N#Cc1ccc(CN2CCC(CN3CCOCC3)C2)cc1 (stereo not drawn) = -11.9

Output measured INHIBITION for this item: CCc1ncc(CN2CCc3nc4sc(C)cc4c(=O)n3CC2)cn1
13

Output measured INHIBITION for this item: CC1=N[C@@]2(CC[C@@H]3CN(C(=O)Nc4ccc(F)cc4)C[C@@H]32)C(=O)N1C
0.542

Output measured INHIBITION for this item: O=C(c1cccnc1)N1CCN(CC2CC2)c2ncccc2C1
-18.4

Output measured INHIBITION for this item: COc1cccc(SCC(=O)N2CCC(N3CCCC3=O)CC2)c1
43.9

Output measured INHIBITION for this item: CCCc1noc(CCC(=O)N2CCCC2Cn2cc(C)cn2)n1 (stereo not drawn)
-13.5

Output measured INHIBITION for this item: CC(N)Cc1ccccc1Sc1ccccc1 (stereo not drawn)
24.7

Output measured INHIBITION for this item: Cc1nc(NC(=O)C2CCCN(C(N)=O)C2)sc1-c1ccccc1 (stereo not drawn)
34.1

Output measured INHIBITION for this item: Cc1cc2c(=O)n3c(nc2s1)CCN(Cc1ccncc1)CC3
58.6

Output measured INHIBITION for this item: Cc1cc2c(=O)n3c(nc2s1)CCN(Cc1[nH]cnc1C)CC3
54.4

Output measured INHIBITION for this item: Cc1nnc(C2CCN(C(=O)c3cnc4ccccc4n3)CC2)s1
31.2

Output measured INHIBITION for this item: CCc1noc(CCC(=O)N[C@@H]2CC[C@@H](n3ccnc3C)[C@@H]2O)n1
56.8

Output measured INHIBITION for this item: COCCn1c(=O)n(Cc2ccc(Cl)s2)c2cc(C(=O)O)ccc21
32.3

Output measured INHIBITION for this item: O=C1COC2(CCN(c3ncccn3)CC2)CN1Cc1ccccn1
-6.21

Output measured INHIBITION for this item: Cc1nc[nH]c1CN1CCc2nc3scc(C)c3c(=O)n2CC1
26.8

Output measured INHIBITION for this item: COc1cccc(SCC(=O)N2CCCC(N3CCCC3=O)C2)c1 (stereo not drawn)
15.5

Output measured INHIBITION for this item: Cc1ccc(NC2CCN(C(=O)c3cncnc3C)CC2)nn1
-17.22
